- measured_on: T1, hAPLNR (Homo sapiens, UniProt P35414)
- T1 sequence (P35414 1-380): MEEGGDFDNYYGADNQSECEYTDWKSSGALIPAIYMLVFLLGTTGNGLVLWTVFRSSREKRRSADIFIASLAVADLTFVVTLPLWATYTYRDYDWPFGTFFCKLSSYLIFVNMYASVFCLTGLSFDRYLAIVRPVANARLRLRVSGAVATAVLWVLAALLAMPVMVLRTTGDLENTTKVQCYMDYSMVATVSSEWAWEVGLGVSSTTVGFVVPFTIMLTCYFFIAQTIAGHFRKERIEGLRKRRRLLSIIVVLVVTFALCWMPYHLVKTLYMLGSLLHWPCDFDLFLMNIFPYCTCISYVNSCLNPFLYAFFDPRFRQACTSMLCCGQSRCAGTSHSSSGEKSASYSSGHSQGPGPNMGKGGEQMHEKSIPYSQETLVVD
- experimental_protocol: CRE-luciferase cyclic AMP assay, activation of hAPLNR (inhibition of Forskolin-induced cAMP) in HEK293/CRE-luc/hAPLNR cells
- Assay type: cell-based
- Set-up: expressed in transfected cells
- test_context: Table 6A; without Apelin; % of maximum Apelin activation
observed_property: % Activation at 100 nM mAb (at 5 uM Forskolin)

H4H9104P: anti-APLNR antibody, HCVR/LCVR SEQ ID NO: 178/186, human IgG4 Fc (antibody, V domains shown, human IgG4 Fc) VH: QVQLVESGGDLVKPGGSLRLSCAASGFTFSDYYMNWIRQAPGKGLEWVSYISSSGSTIHYADSVKGRFTISRDNAKNLVYLRMNSLRAEDTAVYFCAREREVHDYSDPYFFFYGMDVWGQGTTVTVSS VL: DIQMTQSPSSVSASVGDRVTITCRASQDVSSWLAWYQHKPGKAPKLLIFAASSLQSGVPSRFSGSGSGTDFTLTISSLQSEDFATYYCQQANSFPLTFGGGTKVEIK: No Activation
H4H9112P: anti-APLNR antibody, HCVR/LCVR SEQ ID NO: 194/202, human IgG4 Fc (antibody, V domains shown, human IgG4 Fc) VH: QVQLVQSGAEVKKPGASVEVSCKASGYTFTDYYIHWIRQAPGQGLEWMGWINPDSGRTNYAQKFQVRVTMTRDTSITTAYMELNRLKSDDTAVYYCARGPLRGYSGYDFFDYWGQGTLVTVSS VL: DIQMTQSPSSLSAFVGDRVTITCRASQSISSYLNWYQQKPGKAPKLLIYTASTLQRGVPSRFRGSGSGTDFTLTISSLQPEDFATYYCHQTYSIPITFGQGTRLEIK: No Activation
